- assay.info: in vivo
- measurement.parameters: female, BALB/c, mouse, iv, 20 pmol peptide, total radioactivity, uptake in stomach
measurement.kind: tissue uptake at 20 min (%ID/g)
Give just the numeric value; %ID/g need not be written.

// recorded tissue uptake at 20 min for CCCC[C@@H](C(=O)N[C@@H](CC(=O)O)C(=O)N[C@@H](Cc1cccc2ccccc12)C(N)=O)N(C)C(=O)[C@H](Cc1c[nH]c2ccccc12)NC(=O)CNC(=O)[C@H](Cc1ccc(O)cc1)NC(=O)[C@H](C)NC(=O)[C@@H](CCC(=O)O)NC(=O)CN1CCN(CC(=O)O)CCN(CC(=O)O)CCN(CC(=O)O)CC1 [^68Ga-DOTA-MGS5, metal not drawn] : 4.09

---

- assay.info: in vivo
- measurement.parameters: female, BALB/c, mouse, iv, 20 pmol peptide, total radioactivity, uptake in kidneys
measurement.kind: tissue uptake at 1 h (%ID/g)
Please respond with the number in %ID/g and leave the unit unwritten.

// tissue uptake at 1 h lookup, compound = CCCC[C@@H](C(=O)N[C@@H](CC(=O)O)C(=O)N[C@@H](Cc1cccc2ccccc12)C(N)=O)N(C)C(=O)[C@H](Cc1c[nH]c2ccccc12)NC(=O)CNC(=O)[C@H](Cc1ccc(O)cc1)NC(=O)[C@H](C)NC(=O)[C@@H](CCC(=O)O)NC(=O)CN1CCN(CC(=O)O)CCN(CC(=O)O)CCN(CC(=O)O)CC1 [^68Ga-DOTA-MGS5, metal not drawn] , result: 5.11

---

- assay.info: in vivo
- measurement.parameters: female, BALB/c, mouse, iv, 20 pmol peptide, total radioactivity, uptake in lung
measurement.kind: tissue uptake at 5 min (%ID/g)
Unit %ID/g implied. Number only.

Reported tissue uptake at 5 min ( CCCC[C@@H](C(=O)N[C@@H](CC(=O)O)C(=O)N[C@@H](Cc1cccc2ccccc12)C(N)=O)N(C)C(=O)[C@H](Cc1c[nH]c2ccccc12)NC(=O)CNC(=O)[C@H](Cc1ccc(O)cc1)NC(=O)[C@H](C)NC(=O)[C@@H](CCC(=O)O)NC(=O)CN1CCN(CC(=O)O)CCN(CC(=O)O)CCN(CC(=O)O)CC1 [^68Ga-DOTA-MGS5, metal not drawn] ) = 8.51

---

- assay.info: in vivo
- measurement.parameters: female, BALB/c, mouse, iv, 20 pmol peptide, total radioactivity, uptake in femur
- Procedure: The biodistribution profile of ^68Ga-DOTA-MGS5 in female BALB/c mice was evaluated for the time points of 5, 20, 60, and 90 min post injection (p.i.). Biodistribution studies evaluating the pharmacokinetics and tissue distribution of ^68Ga-DOTA-MGS5 were performed in 6-week-old female BALB/c mice (n = 12). […] Results were expressed as percentage of injected activity per organ (% IA) and per gram tissue (% IA/g).
measurement.kind: tissue uptake at 5 min (%ID/g)
Give the quantity in %ID/g, number only.

Form: compound = CCCC[C@@H](C(=O)N[C@@H](CC(=O)O)C(=O)N[C@@H](Cc1cccc2ccccc12)C(N)=O)N(C)C(=O)[C@H](Cc1c[nH]c2ccccc12)NC(=O)CNC(=O)[C@H](Cc1ccc(O)cc1)NC(=O)[C@H](C)NC(=O)[C@@H](CCC(=O)O)NC(=O)CN1CCN(CC(=O)O)CCN(CC(=O)O)CCN(CC(=O)O)CC1 [^68Ga-DOTA-MGS5, metal not drawn] ; tissue uptake at 5 min = 2.77
